study.target: H3K4me3 peptide (Homo sapiens, UniProt P68431)
protocol.description: MST
quantity.measured: Kd (nM)

>>> measured_result("BPTF-PHD PHD (protein) KLYCICKTPYDESKFYIGCDRCQNWYHGRCVGILQSEAELIDEYVCPQCQST")
2900
